biological target: S. aureus topoisomerase IV (Staphylococcus aureus, UniProt P0C1S7+P0C1U9); construct: purchased Inspiralis, Norwich, UK; assay: Topoisomerase IV decatenation assay; format: biochemical; conditions: IC50 S. aureus topoisomerase IV, decatenation of kinetoplast DNA
pIC50: −log10 of the molar value.
recorded.metric: pIC50

molecule="COc1c(N2C[C@@H]3CCCN[C@@H]3C2)c(F)cc2c(=O)c(C(=O)O)cn(C3CC3)c12 [MXF, moxifloxacin, reference compound]" recorded_metric=pIC50 observed_measurement=5.43

###

molecular target: S. aureus DNA gyrase (Staphylococcus aureus, UniProt P0A0K8+P20831); test: biochemical; conditions: supercoiling of relaxed pBR322
recorded.metric: IC50 (µM)

cpd_smiles=C=CC(=O)N1CCN(c2cc3c(cc2F)c(=O)c(C(=O)O)cn3C2CC2)CC1 tgt="S. aureus DNA gyrase (Staphylococcus aureus, UniProt P0A0K8+P20831)" recorded_metric=IC50 observed_measurement=23.9
cpd_smiles=O=C(O)c1cn(C2CC2)c2cc(N3CCN(C(=O)CCCCBr)CC3)c(F)cc2c1=O tgt="S. aureus DNA gyrase (Staphylococcus aureus, UniProt P0A0K8+P20831)" recorded_metric=IC50 observed_measurement=16.2
cpd_smiles=O=C(O)c1cn(C2CC2)c2cc(N3CCN(C(=O)CCCCl)CC3)c(F)cc2c1=O tgt="S. aureus DNA gyrase (Staphylococcus aureus, UniProt P0A0K8+P20831)" recorded_metric=IC50 observed_measurement=7.34
cpd_smiles=O=C(O)c1cn(C2CC2)c2cc(N3CCN(C(=O)CCl)CC3)c(F)cc2c1=O tgt="S. aureus DNA gyrase (Staphylococcus aureus, UniProt P0A0K8+P20831)" recorded_metric=IC50 observed_measurement=61.3
cpd_smiles=O=C(O)c1cn(C2CC2)c2cc(N3CCN(C(=O)CCCBr)CC3)c(F)cc2c1=O tgt="S. aureus DNA gyrase (Staphylococcus aureus, UniProt P0A0K8+P20831)" recorded_metric=IC50 observed_measurement=16.4
cpd_smiles=O=C(O)c1cn(C2CC2)c2cc(N3CCN(C(=O)C4CC4)CC3)c(F)cc2c1=O tgt="S. aureus DNA gyrase (Staphylococcus aureus, UniProt P0A0K8+P20831)" recorded_metric=IC50 observed_measurement=22.3
cpd_smiles=O=C(O)c1cn(C2CC2)c2cc(N3CCN(C(=O)CCCCCl)CC3)c(F)cc2c1=O tgt="S. aureus DNA gyrase (Staphylococcus aureus, UniProt P0A0K8+P20831)" recorded_metric=IC50 observed_measurement=12

###

MIC overview
tested on: M. tuberculosis H37Rv; experiment: Tuberculostatic activity, Microplate Alamar Blue Assay (MIC); assay type: cell-based, Mycobacterium tuberculosis; details: Mycobacterium tuberculosis, H37RV; MABA; read-out: MIC M. tuberculosis H37Rv
recorded.metric: MIC (µg/mL)

molecule="[H]/N=C(/N)N[C@H]1[C@H](O)[C@@H](O)[C@H](O[C@@H]2O[C@@H](C)[C@](O)(C=O)[C@H]2O[C@@H]2O[C@@H](CO)[C@H](O)[C@@H](O)[C@@H]2NC)[C@@H](N/C(N)=N\\[H])[C@@H]1O [streptomycin (SM), streptomycin, reference compound]" recorded_metric=MIC observed_measurement=1
molecule="O=C(O)c1cn(C2CC2)c2cc(N3CCN(CCCCCCCCCCC(=O)N4CCN(c5cc6c(cc5F)c(=O)c(C(=O)O)cn6C5CC5)CC4)CC3)c(F)cc2c1=O [Compound 21, CP–Undecanoyl–CP Dimer]" recorded_metric=MIC observed_measurement=2
molecule="O=C(O)c1cn(C2CC2)c2cc(N3CCN(C(=O)CCC(F)(F)F)CC3)c(F)cc2c1=O [Compound 15]" recorded_metric=MIC observed_measurement=64
molecule="O=C(O)c1cn(C2CC2)c2cc(N3CCN(CCCCC(=O)N4CCN(c5cc6c(cc5F)c(=O)c(C(=O)O)cn6C5CC5)CC4)CC3)c(F)cc2c1=O [Compound 19, CP–Pentanoyl–CP Dimer]" recorded_metric=MIC observed_measurement=8
molecule="O=C(O)c1cn(C2CC2)c2cc(N3CCN(C(=O)CCCBr)CC3)c(F)cc2c1=O [Compound 10]" recorded_metric=MIC observed_measurement=1
